- Target of assay: SARS-COV-2 RBD extracellular domain expressed with a C-terminal mouse IgG2a (SARS-COV-2 RBD-mFc) (SARS-CoV-2)
- Assay remarks: SPR, captured mAb, RBD-mFc in solution, 37 C
Property name: Kd (nM)
Entry rule: numbers only, all in nM.

Binder	Recorded measurement
mAb10967 (antibody, V domains shown) VH: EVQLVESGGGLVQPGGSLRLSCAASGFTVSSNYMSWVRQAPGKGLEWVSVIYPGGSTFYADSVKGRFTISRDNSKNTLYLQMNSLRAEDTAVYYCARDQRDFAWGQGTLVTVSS VL: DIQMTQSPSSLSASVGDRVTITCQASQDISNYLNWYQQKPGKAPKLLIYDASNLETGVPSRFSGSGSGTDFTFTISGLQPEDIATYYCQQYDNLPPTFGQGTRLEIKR	0.0229

Lab note: next binder to report on.
Asked: Quick one: give measured Kd for mAb10939 (antibody, V domains shown) VH: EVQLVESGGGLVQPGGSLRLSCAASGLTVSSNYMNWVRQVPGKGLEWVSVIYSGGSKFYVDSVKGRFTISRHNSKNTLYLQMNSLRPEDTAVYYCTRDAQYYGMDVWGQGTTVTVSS VL: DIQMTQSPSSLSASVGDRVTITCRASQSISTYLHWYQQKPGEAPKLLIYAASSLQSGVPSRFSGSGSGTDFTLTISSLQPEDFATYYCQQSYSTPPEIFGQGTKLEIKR
Given back: 0.155
